- System: EIF2AK1
- run-parameters: concentration: 1 μM, replicates: in singlicate; n = 1
property-name: %Inh (%)
Dear colleague, please return just the value in %, with no unit written.

Past entries and their recorded results:
[[record]]
compound_structure = "Cl.O=C(Nc1cccc(-c2nn3ncccc3c2-c2ccnc(Nc3cccnc3)n2)c1)c1c(F)cccc1F"
study_system = "EIF2AK1"
property_name = "%Inh"
quantitative_result = 17

[[record]]
compound_structure = "Cc1ccccc1-n1cnc2c(N)ncnc21"
study_system = "EIF2AK1"
property_name = "%Inh"
quantitative_result = 0


Query block: Fill in %Inh for record `COc1ccccc1CNC(=O)c1cc(C(=O)c2ccccc2C)c[nH]1`
Result block: 0

Query block: Tell me measured %Inh for `O=S(=O)(c1ccc(-c2ccnc3[nH]ccc23)cc1)N1CCCC1` please.
Result block: 0

Query block: Specify measured %Inh for `Fc1cc(Cl)ccc1Nc1ccnc2cc(-c3ccc(CN4CCCCC4)o3)ccc12` .
Result block: 0

Query block: Determine its reported %Inh: `COc1ccccc1-c1ccc2c(NC(=O)C3CC3)n[nH]c2n1`
Result block: 0

Query block: Return reported %Inh. Input compound: `Cc1cc(NCC(c2ccccc2)c2ccccc2)nc(NCc2ccc(C(F)(F)F)cc2)n1`
Result block: 0

Query block: Supply reported %Inh belonging to this compound: `CS(=O)(=O)c1ccc(-c2c(-c3ncn[nH]3)sc(N3CCOCC3)c2C#N)cc1`
Result block: 21

Query block: Input `Cc1ccc(NC(=O)Nc2cccc(Cl)c2)cc1-c1ccc(C(=O)Nc2ccncc2)cc1` , output reported %Inh.
Result block: 0

----------
- Test system: MAP4K3
- run-parameters: concentration: 1 μM, replicates: in singlicate; n = 1
Listed below: %Inh values for each entry.
Give the quantity in %, number only.

Here are 5 compounds together with their reported answers.
[[record]]
compound = "COc1ccc(C2=C(Nc3cccc(C(=O)O)c3)C(=O)NC2=O)cc1 [SB-390765]"
study_system = "MAP4K3"
property_name = "%Inh"
quantitative_result = 2

[[record]]
compound = "O=C(Nc1n[nH]c2cc(-c3cccc(F)c3F)ccc12)C1CC1 [SB-733894]"
study_system = "MAP4K3"
property_name = "%Inh"
quantitative_result = 12

[[record]]
compound = "CS(=O)(=O)c1ccc(-c2c(-c3ncn[nH]3)sc(N3CCOCC3)c2C#N)cc1"
study_system = "MAP4K3"
property_name = "%Inh"
quantitative_result = 0

[[record]]
compound = "Cl.O=C(Nc1cccc(-c2nn3ncccc3c2-c2ccnc(Nc3cccnc3)n2)c1)c1c(F)cccc1F [GSK312879]"
study_system = "MAP4K3"
property_name = "%Inh"
quantitative_result = 3

[[record]]
compound = "COc1ccc2nc(-c3cccc(C)n3)nc(Nc3ccncc3)c2c1 [GSK204919]"
study_system = "MAP4K3"
property_name = "%Inh"
quantitative_result = 12


Query block: Answer with the recorded %Inh for the compound listed here: COc1cc2ncnc(Nc3ccc4nc(-c5ccccc5)[nH]c4c3)c2cc1OC.Cl [GW282450]
Result block: 3

Query block: Retrieve %Inh measured for Fc1cc(Cl)ccc1Nc1ccnc2cc(-c3ccc(CN4CCCCC4)o3)ccc12 [GW560116] and print it.
Result block: 0

----------
- Tested on: TRPM6;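 note: kd values determined as follow-up on hits from a single-replicate KINOMEscan panel screen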
property-name: Kd

Query block: Report its Kd with TRPM6 as the test system: `Cn1ccc2ncnc(Oc3ccc(Nc4nc5ccccc5[nH]4)cc3)c21`
Result block: > 10 µM
